assay: Cytotoxicity on THP-1 cells; assay type: cell-based; settings: human, THP-1 cells (KSHV-negative macrophage cell line)
propertyLabel: CC50 at 6 days (µg/mL)

>>> reportedresult("Nc1ccc(S(=O)(=O)Nc2nccs2)cc1")
30
>>> reportedresult("[H]/N=C(/N)NS(=O)(=O)c1ccc(N)cc1")
125

###

target: MDM2-p53 complex (Homo sapiens); assay: MDM2-p53 complex inhibition assay; assay type: binding; conditions: read-out: Inhibition of MDM2-p53 complex formation (pre-treat)
Sequence (Q00987 whole entry, one chain of several): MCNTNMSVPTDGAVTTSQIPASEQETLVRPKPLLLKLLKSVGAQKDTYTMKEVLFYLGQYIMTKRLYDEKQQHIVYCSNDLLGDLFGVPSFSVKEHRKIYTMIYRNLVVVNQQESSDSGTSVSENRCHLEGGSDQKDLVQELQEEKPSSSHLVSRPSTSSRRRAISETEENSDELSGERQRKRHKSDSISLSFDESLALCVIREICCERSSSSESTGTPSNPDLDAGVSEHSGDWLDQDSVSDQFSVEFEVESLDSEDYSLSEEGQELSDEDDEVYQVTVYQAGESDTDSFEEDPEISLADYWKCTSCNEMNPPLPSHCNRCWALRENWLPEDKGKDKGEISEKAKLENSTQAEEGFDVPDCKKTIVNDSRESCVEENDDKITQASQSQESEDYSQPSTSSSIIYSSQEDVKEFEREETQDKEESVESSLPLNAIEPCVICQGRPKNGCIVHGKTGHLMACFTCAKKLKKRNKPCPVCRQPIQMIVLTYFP
propertyLabel: inhibition at 100 µM (%)

>>> reportedresult("Cc1cc(NS(=O)(=O)c2ccc(N)cc2)no1 [BC6, sulfamethoxazole]")
50
>>> reportedresult("Nc1ccc(S(N)(=O)=O)cc1 [SA4, sulfanilamide]")
56

###

assay: Cytotoxicity on HUVEC cells; type: cell-based; conditions: human, HUVEC cells (primary human umbilical cord endothelial cells)
propertyLabel: CC50 at 6 days (µg/mL)

>>> reportedresult("[H]/N=C(/N)NS(=O)(=O)c1ccc(N)cc1")
500
>>> reportedresult("Nc1ccc(S(=O)(=O)Nc2nccs2)cc1")
250

###

Readings of CC50 at 6 days for the listed compounds
test: Cytotoxicity on BC3 cells; assay type: cell-based; settings: human
propertyLabel: CC50 at 6 days (µg/mL)

>>> reportedresult("[H]/N=C(/N)NS(=O)(=O)c1ccc(N)cc1 [SG3, sulfaguanidine]")
100
>>> reportedresult("Nc1ccc(S(=O)(=O)Nc2nccs2)cc1 [ST5, sulfathiazole]")
100

Data provenance: paper PMC6002838
